assay: in vivo; conditions: rat, 60 mg/kg/day
Test Readout: Cmax

• C[C@H](Nc1ncnc2[nH]cnc12)c1nc2ccc(F)cc2c(=O)n1-c1ccccc1 = 7300 ng/mL

* * *

Target: p110γ (Homo sapiens, UniProt P48736)
Construct: endogenous in cells; host or cells: basophils
Sequence (P48736 whole entry, species assumed): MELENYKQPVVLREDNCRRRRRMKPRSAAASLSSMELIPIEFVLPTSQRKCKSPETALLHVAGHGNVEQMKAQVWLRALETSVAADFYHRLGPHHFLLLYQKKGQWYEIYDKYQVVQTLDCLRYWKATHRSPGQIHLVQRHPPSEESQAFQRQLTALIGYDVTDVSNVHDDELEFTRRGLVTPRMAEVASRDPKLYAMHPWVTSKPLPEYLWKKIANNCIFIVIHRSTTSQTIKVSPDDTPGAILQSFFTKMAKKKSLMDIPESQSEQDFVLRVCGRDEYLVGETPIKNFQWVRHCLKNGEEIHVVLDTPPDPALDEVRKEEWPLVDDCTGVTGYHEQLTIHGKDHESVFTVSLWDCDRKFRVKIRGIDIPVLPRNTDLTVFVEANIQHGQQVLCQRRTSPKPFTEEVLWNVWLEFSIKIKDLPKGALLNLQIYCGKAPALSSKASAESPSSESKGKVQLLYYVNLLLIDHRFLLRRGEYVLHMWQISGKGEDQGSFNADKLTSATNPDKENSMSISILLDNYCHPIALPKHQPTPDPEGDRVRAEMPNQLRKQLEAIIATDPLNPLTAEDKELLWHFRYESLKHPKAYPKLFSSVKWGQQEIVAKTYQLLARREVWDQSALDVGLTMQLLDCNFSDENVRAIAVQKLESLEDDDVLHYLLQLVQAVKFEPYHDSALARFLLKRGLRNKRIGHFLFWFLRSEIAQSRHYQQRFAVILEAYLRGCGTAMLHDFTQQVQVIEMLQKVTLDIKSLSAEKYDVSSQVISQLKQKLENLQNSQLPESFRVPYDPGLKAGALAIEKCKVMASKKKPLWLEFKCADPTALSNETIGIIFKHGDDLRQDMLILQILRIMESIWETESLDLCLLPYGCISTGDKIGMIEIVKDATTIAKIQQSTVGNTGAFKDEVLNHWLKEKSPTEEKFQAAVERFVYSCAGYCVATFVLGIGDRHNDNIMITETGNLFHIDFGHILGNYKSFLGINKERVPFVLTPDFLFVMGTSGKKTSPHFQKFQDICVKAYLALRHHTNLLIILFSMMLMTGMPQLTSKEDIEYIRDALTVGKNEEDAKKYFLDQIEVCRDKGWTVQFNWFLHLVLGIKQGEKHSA
Assay: Cell-based p110γ assay: fMLP stimulated CD63 movement to surface of basophils
Conditions: FB, read-out: Cell-based assay EC50 p110γ, FB
Procedure: The p110α assay used SW3T3 cells stimulated by PDGF, and p110 kinase activity was measured by Akt phosphorylation. The p110β activity was measured by lysophosphatidic acid stimulation of Akt phosphorylation in mouse embryonic fibroblasts. The activity of p110δ was measured by anti-FcεR1 antibody cross linking stimulation of CD63 movement to the surface of basophils. Finally, the activity of p110γ was measured by fMLP stimulation of CD63 antigen movement to the cell surface of basophils.
pEC50: −log10 of the molar value.
Test Readout: pEC50

• C[C@H](Nc1ncnc2[nH]cnc12)c1nc2ccc(F)cc2c(=O)n1-c1ccccc1 = 5.52

* * *

Molecular target: p110δ (Homo sapiens)
Construct: expressed in transfected cells; host or cells: chick embryo fibroblasts (CEF), viral transduction
Sequence (O00329 1-1044): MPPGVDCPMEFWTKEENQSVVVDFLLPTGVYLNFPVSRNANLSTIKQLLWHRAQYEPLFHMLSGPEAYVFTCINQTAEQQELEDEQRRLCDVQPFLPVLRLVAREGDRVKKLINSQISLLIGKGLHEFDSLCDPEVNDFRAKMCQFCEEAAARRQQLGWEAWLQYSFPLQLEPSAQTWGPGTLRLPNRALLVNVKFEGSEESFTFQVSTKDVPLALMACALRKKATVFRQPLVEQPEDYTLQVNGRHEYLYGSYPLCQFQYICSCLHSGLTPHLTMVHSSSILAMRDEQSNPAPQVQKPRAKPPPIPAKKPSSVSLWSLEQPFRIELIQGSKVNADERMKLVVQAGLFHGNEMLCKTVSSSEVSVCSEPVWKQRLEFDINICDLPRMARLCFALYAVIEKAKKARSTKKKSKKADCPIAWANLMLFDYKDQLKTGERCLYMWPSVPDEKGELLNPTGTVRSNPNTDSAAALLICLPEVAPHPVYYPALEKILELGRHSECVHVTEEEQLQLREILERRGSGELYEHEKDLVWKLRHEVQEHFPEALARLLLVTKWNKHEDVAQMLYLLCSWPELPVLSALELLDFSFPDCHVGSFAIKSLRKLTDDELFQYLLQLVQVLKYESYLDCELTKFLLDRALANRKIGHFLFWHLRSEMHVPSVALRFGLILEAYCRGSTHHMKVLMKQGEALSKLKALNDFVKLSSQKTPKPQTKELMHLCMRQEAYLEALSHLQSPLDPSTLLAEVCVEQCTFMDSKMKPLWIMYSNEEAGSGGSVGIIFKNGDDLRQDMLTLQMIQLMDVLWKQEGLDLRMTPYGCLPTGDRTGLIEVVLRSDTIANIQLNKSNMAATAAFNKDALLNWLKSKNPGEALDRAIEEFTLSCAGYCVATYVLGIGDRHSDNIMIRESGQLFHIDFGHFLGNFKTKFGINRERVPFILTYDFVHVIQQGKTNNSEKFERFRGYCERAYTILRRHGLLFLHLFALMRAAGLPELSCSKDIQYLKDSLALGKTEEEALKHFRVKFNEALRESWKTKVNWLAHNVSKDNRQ
Assay: Chick embryo fibroblast (CEF) transformation assay, p110δ
Assay type: cell-based
Conditions: read-out: EC-50 for inhibition of functional activity of p110δ
Test Readout: EC50

• C[C@H](Nc1ncnc2[nH]cnc12)c1nc2ccc(F)cc2c(=O)n1-c1ccccc1 [Compound I] = ~15 nM

* * *

molecular target: p110α (Homo sapiens, UniProt P42336); assay: Chick embryo fibroblast (CEF) transformation assay, p110α; settings: read-out: EC-50 for functional activity of p110α, highest concentration tested 2000 nM
Sequence (P42336 whole entry, change not shown): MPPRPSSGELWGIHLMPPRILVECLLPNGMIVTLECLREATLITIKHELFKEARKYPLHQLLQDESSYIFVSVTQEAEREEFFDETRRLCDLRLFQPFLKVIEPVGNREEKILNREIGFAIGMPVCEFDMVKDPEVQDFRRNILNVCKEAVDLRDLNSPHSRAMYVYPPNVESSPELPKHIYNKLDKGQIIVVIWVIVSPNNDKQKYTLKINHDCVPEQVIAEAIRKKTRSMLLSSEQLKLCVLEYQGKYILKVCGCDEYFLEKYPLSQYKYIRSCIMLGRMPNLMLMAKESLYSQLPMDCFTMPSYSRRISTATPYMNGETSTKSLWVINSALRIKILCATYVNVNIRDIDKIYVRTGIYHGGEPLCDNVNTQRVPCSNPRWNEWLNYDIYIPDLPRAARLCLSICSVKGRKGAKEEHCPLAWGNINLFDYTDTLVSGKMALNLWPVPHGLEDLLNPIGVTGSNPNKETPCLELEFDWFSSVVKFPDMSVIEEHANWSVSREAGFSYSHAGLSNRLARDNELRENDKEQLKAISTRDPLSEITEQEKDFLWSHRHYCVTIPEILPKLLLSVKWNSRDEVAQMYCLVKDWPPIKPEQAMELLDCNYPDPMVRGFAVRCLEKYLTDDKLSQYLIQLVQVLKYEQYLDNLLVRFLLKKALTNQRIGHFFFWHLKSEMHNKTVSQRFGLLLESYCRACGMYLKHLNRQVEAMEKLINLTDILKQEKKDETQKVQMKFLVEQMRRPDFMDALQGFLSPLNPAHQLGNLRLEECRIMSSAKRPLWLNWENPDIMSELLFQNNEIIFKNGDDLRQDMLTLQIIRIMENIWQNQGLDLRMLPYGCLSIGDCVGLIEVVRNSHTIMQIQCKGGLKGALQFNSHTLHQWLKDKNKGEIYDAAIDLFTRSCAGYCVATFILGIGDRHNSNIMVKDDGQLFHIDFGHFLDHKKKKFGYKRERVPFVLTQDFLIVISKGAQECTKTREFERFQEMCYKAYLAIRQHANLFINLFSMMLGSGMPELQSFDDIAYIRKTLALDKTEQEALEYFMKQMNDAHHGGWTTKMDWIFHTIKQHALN
Test Readout: EC50

- C[C@H](Nc1ncnc2[nH]cnc12)c1nc2ccc(F)cc2c(=O)n1-c1ccccc1: > 2000 nM

* * *

target: DNA-PK (Homo sapiens)
Test Readout: IC50 (µM)

- C[C@H](Nc1ncnc2[nH]cnc12)c1nc2ccc(F)cc2c(=O)n1-c1ccccc1 [Compound I]: 13

* * *

experiment: in vivo; parameters: species or system mice; conditions: female, nu/nu, mouse, AUC
Test Readout: AUC (ng·h/mL)

• C[C@H](Nc1ncnc2[nH]cnc12)c1nc2ccc(F)cc2c(=O)n1-c1ccccc1 = 15000

* * *

target: PIKC3 (Homo sapiens)
Sequence (Q8NEB9 whole entry): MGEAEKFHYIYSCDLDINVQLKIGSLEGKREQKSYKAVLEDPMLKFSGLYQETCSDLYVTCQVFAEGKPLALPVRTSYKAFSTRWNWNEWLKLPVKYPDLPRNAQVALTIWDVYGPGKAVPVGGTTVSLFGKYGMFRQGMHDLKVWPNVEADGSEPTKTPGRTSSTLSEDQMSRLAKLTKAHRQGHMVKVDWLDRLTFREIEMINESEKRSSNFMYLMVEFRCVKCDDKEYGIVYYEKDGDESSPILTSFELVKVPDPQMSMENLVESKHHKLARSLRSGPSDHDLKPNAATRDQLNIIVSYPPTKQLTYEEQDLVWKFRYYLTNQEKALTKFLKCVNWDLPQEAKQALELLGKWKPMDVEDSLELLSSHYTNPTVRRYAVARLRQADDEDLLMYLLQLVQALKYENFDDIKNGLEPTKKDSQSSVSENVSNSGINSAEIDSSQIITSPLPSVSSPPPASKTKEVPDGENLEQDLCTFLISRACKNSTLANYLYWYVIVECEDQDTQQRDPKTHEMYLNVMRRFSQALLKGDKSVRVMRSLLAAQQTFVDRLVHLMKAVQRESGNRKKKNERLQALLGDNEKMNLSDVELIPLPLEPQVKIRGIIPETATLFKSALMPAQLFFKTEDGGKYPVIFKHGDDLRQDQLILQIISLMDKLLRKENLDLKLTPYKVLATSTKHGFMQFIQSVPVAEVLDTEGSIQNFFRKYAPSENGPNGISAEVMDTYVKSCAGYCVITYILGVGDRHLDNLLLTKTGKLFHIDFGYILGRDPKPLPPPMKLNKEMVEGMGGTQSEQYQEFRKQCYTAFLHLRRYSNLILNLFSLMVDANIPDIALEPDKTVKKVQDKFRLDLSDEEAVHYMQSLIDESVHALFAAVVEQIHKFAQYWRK
Test Readout: IC50 (nM)

• C[C@H](Nc1ncnc2[nH]cnc12)c1nc2ccc(F)cc2c(=O)n1-c1ccccc1 [Compound I] = 2500

* * *

target: mTOR (Homo sapiens, UniProt P42345)
pIC50: −log10 of the molar value.
Test Readout: pIC50

* C[C@H](Nc1ncnc2[nH]cnc12)c1nc2ccc(F)cc2c(=O)n1-c1ccccc1 [Compound I] | 4.00

* * *

experiment: in vivo; conditions: rat, 60 mg/kg/day
Test Readout: AUC (ng·h/mL)

- C[C@H](Nc1ncnc2[nH]cnc12)c1nc2ccc(F)cc2c(=O)n1-c1ccccc1: 58000
